Here, each record is paired with measured MIC data.
test system: Burkholderia cepacia (ATCC 25416); assay: MIC determination, microbroth dilution; assay type: cell-based; settings: Burkholderia cepacia, ATCC25416, read-out: MIC B.c., Burkholderia cepacia (ATCC 25416)
Structures can show the parent of a compound that is named as a salt.
value_kind: MIC

[
  {
    "compound": "CN[C@@H]1[C@H](O)[C@H](NC)[C@H]2O[C@]3(O)[C@H](O[C@@H]2[C@H]1O)O[C@H](C)C[C@@]3(O)CNCCc1ccc(F)cc1 [compound 33, Trihydrochloride]",
    "system": "Burkholderia cepacia (ATCC 25416)",
    "value_kind": "MIC",
    "measured_result": "≥ 200 µg/mL"
  },
  {
    "compound": "CN[C@@H]1[C@H](O)[C@H](NC)[C@H]2O[C@]3(O)[C@H](O[C@@H]2[C@H]1O)O[C@H](C)C[C@@]3(O)CNCCc1ccc(C(F)(F)F)cc1 [compound 58, Trihydrochloride]",
    "system": "Burkholderia cepacia (ATCC 25416)",
    "value_kind": "MIC",
    "measured_result": "> 200 µg/mL"
  },
  {
    "compound": "CN[C@@H]1[C@H](O)[C@H](NC)[C@H]2O[C@]3(O)[C@H](O[C@@H]2[C@H]1O)O[C@H](C)C[C@@]3(O)CNCc1ccc(Cl)cc1 [compound 18, Trihydrobromide]",
    "system": "Burkholderia cepacia (ATCC 25416)",
    "value_kind": "MIC",
    "measured_result": "100 to 200 µg/mL"
  },
  {
    "compound": "CN[C@@H]1[C@H](O)[C@H](NC)[C@H]2O[C@]3(O)[C@H](O[C@@H]2[C@H]1O)O[C@H](C)C[C@@]3(O)CNCc1ccncc1",
    "system": "Burkholderia cepacia (ATCC 25416)",
    "value_kind": "MIC",
    "measured_result": "> 200 µg/mL"
  },
  {
    "compound": "CN[C@@H]1[C@H](O)[C@H](NC)[C@H]2O[C@]3(O)[C@H](O[C@@H]2[C@H]1O)O[C@H](C)C[C@@]3(O)CNCCc1cnccn1",
    "system": "Burkholderia cepacia (ATCC 25416)",
    "value_kind": "MIC",
    "measured_result": "> 200 µg/mL"
  },
  {
    "compound": "CN[C@@H]1[C@H](O)[C@H](NC)[C@H]2O[C@]3(O)[C@H](O[C@@H]2[C@H]1O)O[C@H](C)C[C@@]3(O)CNCCC1CCOCC1 [compound 52, Trihydrochloride]",
    "system": "Burkholderia cepacia (ATCC 25416)",
    "value_kind": "MIC",
    "measured_result": "> 200 µg/mL"
  },
  {
    "compound": "CN[C@@H]1[C@H](O)[C@H](NC)[C@H]2O[C@]3(O)[C@H](O[C@@H]2[C@H]1O)O[C@H](C)C[C@@]3(O)CNCCc1ccc(Cl)cc1 [compound 54, Trihydrobromide]",
    "system": "Burkholderia cepacia (ATCC 25416)",
    "value_kind": "MIC",
    "measured_result": "> 200 µg/mL"
  },
  {
    "compound": "CN[C@@H]1[C@H](O)[C@H](NC)[C@H]2O[C@]3(O)[C@H](O[C@@H]2[C@H]1O)O[C@H](C)C[C@@]3(O)CNCc1ccc(SC)cc1 [compound 68, trihydrobromide]",
    "system": "Burkholderia cepacia (ATCC 25416)",
    "value_kind": "MIC",
    "measured_result": "> 200 µg/mL"
  },
  {
    "compound": "CN[C@@H]1[C@H](O)[C@H](NC)[C@H]2O[C@]3(O)[C@H](O[C@@H]2[C@H]1O)O[C@H](C)C[C@@]3(O)CNCc1ccc(F)c(F)c1 [compound 12, Trihydrochloride]",
    "system": "Burkholderia cepacia (ATCC 25416)",
    "value_kind": "MIC",
    "measured_result": "≥ 200 µg/mL"
  },
  {
    "compound": "CN[C@@H]1[C@H](O)[C@H](NC)[C@H]2O[C@]3(O)[C@H](O[C@@H]2[C@H]1O)O[C@H](C)C[C@@]3(O)CNCc1ccccn1",
    "system": "Burkholderia cepacia (ATCC 25416)",
    "value_kind": "MIC",
    "measured_result": "> 200 µg/mL"
  },
  {
    "compound": "CN[C@@H]1[C@H](O)[C@H](NC)[C@H]2O[C@]3(O)[C@H](O[C@@H]2[C@H]1O)O[C@H](C)C[C@@]3(O)CNCCc1ccncc1",
    "system": "Burkholderia cepacia (ATCC 25416)",
    "value_kind": "MIC",
    "measured_result": "> 200 µg/mL"
  },
  {
    "compound": "CN[C@@H]1[C@H](O)[C@H](NC)[C@H]2O[C@]3(O)[C@H](O[C@@H]2[C@H]1O)O[C@H](C)C[C@@]3(O)CNCCc1cccs1 [compound 61, trihydrobromide]",
    "system": "Burkholderia cepacia (ATCC 25416)",
    "value_kind": "MIC",
    "measured_result": "≥ 200 µg/mL"
  },
  {
    "compound": "CN[C@@H]1[C@H](O)[C@H](NC)[C@H]2O[C@]3(O)[C@H](O[C@@H]2[C@H]1O)O[C@H](C)C[C@@]3(O)CNCc1cnc[nH]1",
    "system": "Burkholderia cepacia (ATCC 25416)",
    "value_kind": "MIC",
    "measured_result": "100 to 200 µg/mL"
  },
  {
    "compound": "CN[C@@H]1[C@H](O)[C@H](NC)[C@H]2O[C@]3(O)[C@H](O[C@@H]2[C@H]1O)O[C@H](C)C[C@@]3(O)CNCCc1nccs1",
    "system": "Burkholderia cepacia (ATCC 25416)",
    "value_kind": "MIC",
    "measured_result": "> 200 µg/mL"
  },
  {
    "compound": "CN[C@@H]1[C@H](O)[C@H](NC)[C@H]2O[C@]3(O)[C@H](O[C@@H]2[C@H]1O)O[C@H](C)C[C@@]3(O)CNCCCc1ccccc1 [compound 13, Trihydrochloride]",
    "system": "Burkholderia cepacia (ATCC 25416)",
    "value_kind": "MIC",
    "measured_result": "> 200 µg/mL"
  }
]
